system: IL-6; experiment: Inhibition of IL-6 production by TNFα stimulation in synovial fibroblasts derived from a rheumatoid patient (ELISA); assay type: cell-based, human; details: Homo sapiens, Fibroblast; comparison compounds; synovial fibroblasts, TNFα stimulation; read-out: Inhibition against Mediator Release IC50(nM) IL-6
Parameter IC50: see the listing below.

{"columns": ["COMPOUND", "IC50"],
 "data": [
  ["O=C(Nc1ccc(Cl)cc1C(F)(F)F)c1cc(Cl)ccc1O [Reference Example 3, reference compound]", "> 1000 nM"],
  ["O=C(Nc1ccc(C(F)(F)F)cc1Cl)c1cc(Br)ccc1O [Reference Example 7, reference compound]", "> 1000 nM"]
]}

Turning now to a further record.
Annotate the compound O=C(Nc1ccc(C(F)(F)F)cc1)c1cc(Cl)ccc1O [Reference Example 6, reference compound] with its measured IC50.
> 1000 nM

* * *

The following compounds are listed with their measured inhibition at 10 µg/mL values.
test system: NF-κ B; assay: Inhibitory activity of NF-κ B activation, luciferase reporter assay in HepG2 under TNF-α stimulation; type: cell-based, human; details: Homo sapiens; 10 μg/mL; HepG2, TNF-α (40 ng/ml), 4 hours; read-out: Inhibitory Ratio of NF-κ B Activation(%) Drug Concentration 10 μg/mL
Answer with a number only, understood to be in %.

{"columns": ["COMPOUND", "UNITS LABEL", "inhibition at 10 µg/mL"],
 "data": [
  ["CCCCc1nc(NC(=O)c2cc(Br)ccc2O)sc1-c1ccccc1 [Compound No. 198]", "%", 88.7],
  ["O=C(Nc1cc(C(F)(F)F)cc(C(F)(F)F)c1)c1scc(Br)c1O [Compound No. 74]", "%", 97.5],
  ["CC(=O)c1sc(NC(=O)c2cc(Br)ccc2O)nc1-c1ccccc1 [Compound No. 214]", "%", 95.9],
  ["COC(=O)c1cc(NC(=O)c2cc(Cl)ccc2O)cc(C(F)(F)F)c1 [Compound No. 108]", "%", 88.4],
  ["CC(C)(C)c1ccc(O)c(C(=O)Nc2cc(C(F)(F)F)cc(C(F)(F)F)c2)c1 [compound 11]", "%", 98.3]
]}

Give reported inhibition at 10 µg/mL value for O=C(Nc1cc(C(F)(F)F)cc(C(F)(F)F)c1)c1cc(S(=O)(=O)n2cccc2)ccc1O [Compound No. 42]
98.1

Provide inhibition at 10 µg/mL value for the following compound: O=C(Nc1nc(-c2ccccc2)c(C(=O)c2ccccc2)s1)c1cc(Br)ccc1O [Compound No. 215]
97.3

Recall and state the measured inhibition at 10 µg/mL for O=C(Nc1cc(C(F)(F)F)cc(C(F)(F)F)c1)c1cc(C(=O)N2CCCCC2)ccc1O [Compound No. 39] .
82.2

Fill in inhibition at 10 µg/mL for record CC(C)(C)C(=O)c1sc(NC(=O)c2cc(Cl)ccc2O)nc1C(C)(C)C [Compound No.199]
98.4

Dear colleague, please send me the reported inhibition at 10 µg/mL for C[Si](C)(C)C#Cc1ccc(O)c(C(=O)Nc2cc(C(F)(F)F)cc(C(F)(F)F)c2)c1 [Compound No. 20] when you can.
94.9

* * *

system: NF-κ B; assay: Inhibitory activity of NF-κ B activation, luciferase reporter assay in HepG2 under TNF-α stimulation; type: cell-based, human; conditions: 10 μg/mL; HepG2, TNF-α (40 ng/ml), 4 hours
# Inhibitory Ratio of NF-κ B Activation(%) Drug Concentration 10 μg/mL listing for each entry below
Please give a number only; it is taken to be in %.

Kindly indicate its recorded Inhibitory Ratio of NF-κ B Activation(%) Drug Concentration 10 μg/mL. Item: COc1ccc(OC)c(NC(=O)c2cc3ccccc3cc2O)c1 [Compound No. 183]
86.8

Answer with reported Inhibitory Ratio of NF-κ B Activation(%) Drug Concentration 10 μg/mL of COc1cc(Cl)nc(NC(=O)c2cc(Cl)ccc2O)n1 [Compound No. 241]
78.9

Determine its reported Inhibitory Ratio of NF-κ B Activation(%) Drug Concentration 10 μg/mL: Cc1cc(Oc2ccc(C(F)(F)F)cc2NC(=O)c2cc(Cl)ccc2O)cc(C)c1Cl [Compound No. 115]
98.4

State, in one line, measured Inhibitory Ratio of NF-κ B Activation(%) Drug Concentration 10 μg/mL of O=C(Nc1ccc(O)c(C(=O)Nc2cc(C(F)(F)F)cc(C(F)(F)F)c2)c1)c1ccccc1 [Compound No. 45]
63.4

* * *

Reported Inhibitory Ratio of NF-κ B Activation(%) Drug Concentration 1 μg/mL values for a set of compounds
System: NF-κ B
Assay: Inhibitory activity of NF-κ B activation, luciferase reporter assay in HepG2 under TNF-α stimulation
Format: cell-based, human
Conditions: 1 μg/mL; HepG2, TNF-α (40 ng/ml), 4 hours
Procedure: Using a transfection reagent(Effectene; QIAGEN), the human hepatoma cell strain HepG2 was transfected with a plasmid(pNF κ B-Luc Reporter Plasmid; […]) which is integrated with an oligonucleotide having five tandem copies of NF-κ B binding sequences([…]) on a upstream region of firefly luciferase gene(Luc) according to the QIAGEN's protocol, and the cells were incubated for 6 to 24 hours. […]
Give a bare numeral; the unit % is implied.

Give the measured Inhibitory Ratio of NF-κ B Activation(%) Drug Concentration 1 μg/mL for CCC(C)(C)c1ccc(O)c(NC(=O)c2cc(Cl)ccc2O)c1
87.8

* * *

Tested on: IL-6
Experiment: Inhibition of IL-6 production by TNFα stimulation in synovial fibroblasts derived from a rheumatoid patient (ELISA)
Assay type: cell-based, human
Settings: synovial fibroblasts, 10 ng/ml TNFα, 3 days; read-out: Inhibition against Mediator Release IC50(nM) IL-6
Description: Synovial fibroblasts (Human Synoviocyte (RA-Positive), Toyobo, T4040-05) were cultured for 3 days in a medium containing 10 ng/ml of TNFα and a test compound. IL-6 and IL-8 in the supernatant were measured by the ELISA method, and PGE2 (prostaglandin E2) was measured by the EIA method.
Param label: returns MET when IC50 < 500 nM, returns NOT MET otherwise, including exact equality.

The examples below pair each entry with its known result.
{"columns": ["LINE NOTATION", "ASSIGNED CATEGORY"],
 "data": [
  ["O=C(Nc1cc(C(F)(F)F)cc(C(F)(F)F)c1)c1cc(CCc2ccccc2)ccc1O", "NOT MET"],
  ["CC(C)(C)C(=O)c1sc(NC(=O)c2cc(Br)ccc2O)nc1C(C)(C)C", "MET"],
  ["O=C(Nc1cc(C(F)(F)F)cc(C(F)(F)F)c1)c1cc(-c2ccccc2)ccc1O", "NOT MET"],
  ["O=C(Nc1cc(C(F)(F)F)cc(C(F)(F)F)c1)c1ccc(Cl)cc1O", "NOT MET"]
]}

We next turn to a different compound, shown below.
Confirm or reject: IC50 of O=C(Nc1cc(C(F)(F)F)ccc1C(F)(F)F)c1cc(Br)ccc1O lies strictly below 500 nM
MET

* * *

Measured Inhibitory Ratio of NF-κ B Activation(%) Drug Concentration 10 μg/mL accompanies every entry in the list below.
System: NF-κ B
Test: Inhibitory activity of NF-κ B activation, luciferase reporter assay in HepG2 under TNF-α stimulation
Format: cell-based, human
Details: 10 μg/mL; HepG2, TNF-α (40 ng/ml), 4 hours
Protocol: Using a transfection reagent(Effectene; QIAGEN), the human hepatoma cell strain HepG2 was transfected with a plasmid(pNF κ B-Luc Reporter Plasmid; […]) which is integrated with an oligonucleotide having five tandem copies of NF-κ B binding sequences([…]) on a upstream region of firefly luciferase gene(Luc) according to the QIAGEN's protocol, and the cells were incubated for 6 to 24 hours. […]
API: value field is a number in %; no unit string.

# example entries with known answers
{"columns": ["COMPOUND", "ASSAYED SYSTEM", "ENDPOINT RESULT"],
 "data": [
  ["Cc1ccc(O)c(C(=O)Nc2cc(C(F)(F)F)ccc2C(F)(F)F)c1", "NF-κ B", 96.6],
  ["O=C(Nc1cc(C(F)(F)F)ccc1C(F)(F)F)c1cc(Br)ccc1O [Compound No. 83]", "NF-κ B", 98.3],
  ["O=C(Nc1cc(C(F)(F)F)cc(C(F)(F)F)c1)c1cc(Cl)cc(Cl)c1O", "NF-κ B", 95.1],
  ["CCC(C)(C)c1ccc(O)c(NC(=O)c2cc(Cl)ccc2O)c1", "NF-κ B", 99.4],
  ["O=C(Nc1cc(C(F)(F)F)cc(C(F)(F)F)c1)c1cc(-n2cccc2)ccc1O", "NF-κ B", 97.9],
  ["COc1cc(NC(=O)c2cc(Br)ccc2O)cc(C(F)(F)F)c1", "NF-κ B", 97.2],
  ["O=C(Nc1cc(C(F)(F)F)cc(C(F)(F)F)c1)c1cc(CCc2ccccc2)ccc1O", "NF-κ B", 98.3]
]}

Moving on to another compound below.
Give reported Inhibitory Ratio of NF-κ B Activation(%) Drug Concentration 10 μg/mL value for O=C(Nc1cc(C(F)(F)F)ccc1Cl)c1cc(Cl)cnc1O
86.9
